Test: Drug level in brain of ip dosed rat after 1 hr
Format: ADME, organism-based
Conditions: read-out: Drug uptake
assay readout: concentration at 1 h

1) COc1ccc2c(c1)c(CCN1CCOCC1)c(C)n2C(=O)c1cccc(Cl)c1Cl ... > 100 nM

* * *

Biological target: Cannabinoid receptor 2 (Homo sapiens, UniProt P34972)
Sequence (P34972 whole entry): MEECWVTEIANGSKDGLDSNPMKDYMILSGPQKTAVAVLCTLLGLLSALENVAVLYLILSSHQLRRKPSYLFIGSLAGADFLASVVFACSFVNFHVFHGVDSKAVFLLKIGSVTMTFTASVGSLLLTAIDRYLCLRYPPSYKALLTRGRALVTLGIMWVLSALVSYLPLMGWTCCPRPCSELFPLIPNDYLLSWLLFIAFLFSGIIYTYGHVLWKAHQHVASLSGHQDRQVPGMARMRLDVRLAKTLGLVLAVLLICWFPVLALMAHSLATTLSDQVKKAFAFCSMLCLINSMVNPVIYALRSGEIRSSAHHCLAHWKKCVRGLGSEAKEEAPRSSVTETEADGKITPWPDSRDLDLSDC
Experiment: Displacement of [3H]CP-55,940 from human CB2 receptor expressed in CHO cell membranes
Field 'label' (enum: TRUE / FALSE). Set to TRUE when Ki is strictly under 900 nM; else FALSE.

1) CC(C)(NC(=O)c1ccc(N2CC(F)(F)C2)c(OCC2CC2)n1)c1nnc(C2CC2)o1 ... FALSE
2) COC1CN(c2ccc(C(=O)NCC3(O)CCCCC3)nc2OCC2CC2)C1 ... FALSE
3) CCOCCOCC(C)(C)c1cc(NC(=O)c2ccc(C3CCCC3)c(OCC3CC3)n2)on1 ... TRUE
4) CCC(CC)(NC(=O)c1ccc(N2CC(OC)C2)c(OCC2CC2)n1)C(=O)NC ... TRUE
5) CC(C)(Cc1nnc(-c2ccc(F)cc2)o1)NC(=O)c1ccc(C2CCCC2)c(OCC2CC2)n1 ... TRUE
6) CCOC(=O)C(CC)(CC)NC(=O)c1ccc(N2CC(O[11CH3])C2)c(OCC2CC2)n1 ... TRUE
7) CCC(CC)(NC(=O)c1ccc(N2CC(F)(F)C2)c(OCC2CC2)n1)C(=O)NCCF ... TRUE
8) CC(C)(Cc1nnc(-c2ccc(F)cc2)o1)NC(=O)c1ccc(N2CC(F)(F)C2)c(OCC2CC2)n1 ... FALSE
9) CCOC(=O)C(CC)(CC)NC(=O)c1ccc(C2CCCC2)c(OCC2CC2)n1 ... TRUE

* * *

Target: Cannabinoid receptor 2 (Homo sapiens, UniProt P34972)
Test: Displacement of [3H]CP-55,940 from human CB2 receptor expressed in CHO cell membranes
assay readout: Ki (nM)

1. CCC(CC)(NC(=O)c1ccc(N2CC(OC)C2)c(OCC2CC2)n1)C(=O)N1CC(F)C1 ... 18.3
2. COC1CN(c2ccc(C(=O)NC(C)(C)Cc3nnc(-c4ccc(F)cc4)o3)nc2OCC2CC2)C1 ... 466
3. CC(C)(NC(=O)c1ccc(N2CC(F)(F)C2)c(OCC2CC2)n1)c1nnc(-c2ccccc2)o1 ... 3960
4. CCOC(=O)C(CC)(CC)NC(=O)c1ccc(N2CC(OC)C2)c(OCC2CC2)n1 ... 2.5
5. COC1CN(c2ccc(C(=O)NC3(CC(N)=O)COC3)nc2OCC2CC2)C1 ... 1020
6. COCCOCC(C)(C)c1cc(NC(=O)c2ccc(C3CCCC3)c(OCC3CC3)n2)on1 ... 294
7. CCC(CC)(NC(=O)c1ccc(N2CC(OC)C2)c(OCC2CC2)n1)C(=O)NCCCF ... 2060
8. CCC(CC)(NC(=O)c1ccc(N2CC(F)(F)C2)c(OCC2CC2)n1)C(=O)NC ... 179

* * *

Test: Stability in mouse plasma assessed as intact compound remaining at 4 MBq at 37 degC incubated for 5 to 20 mins by radio-TLC method
Format: ADME, cell-free
Settings: read-out: Stability
assay readout: remaining at 4 MBq (%)

1) CCOC(=O)C(CC)(CC)NC(=O)c1ccc(N2CC(O[11CH3])C2)c(OCC2CC2)n1 ... 84
